FYI, the data here is from the supplement of paper PMC7877785.

ASSAY COMMENT: self-splicing fitness, log relative to wild type (ln ratio); higher = more splicing; Tetrahymena group I intron in knt gene, E. coli kanamycin selection, DiMSum; sequences stand for … in CUCUCU…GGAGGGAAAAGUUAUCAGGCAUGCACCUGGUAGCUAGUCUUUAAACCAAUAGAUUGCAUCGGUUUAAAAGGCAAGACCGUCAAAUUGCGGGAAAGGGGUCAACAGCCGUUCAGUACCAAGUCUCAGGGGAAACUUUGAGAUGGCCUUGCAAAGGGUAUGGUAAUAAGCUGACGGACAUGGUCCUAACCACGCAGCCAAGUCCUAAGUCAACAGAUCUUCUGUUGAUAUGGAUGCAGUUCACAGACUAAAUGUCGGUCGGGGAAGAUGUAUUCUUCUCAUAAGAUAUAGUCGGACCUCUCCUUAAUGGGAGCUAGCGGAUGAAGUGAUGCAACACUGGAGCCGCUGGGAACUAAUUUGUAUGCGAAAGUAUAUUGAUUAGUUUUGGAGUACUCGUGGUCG;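 also: selection with 25 µg/mL kanamycin versus none on LB agar overnight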
TEST CONDITIONS: 37 °C
Think of -1 as a floor: if self-splicing fitness (ln) stands on it or above, it is MET; beneath it, NOT MET.

Here are 5 sequences together with their reported answers.
QUERY: Is the recorded value of self-splicing fitness (ln) equal to or greater than -1 for this sequence? `UAAAAGCAAUAUUACGACAU`
RESULT: MET

QUERY: Is the recorded value of self-splicing fitness (ln) equal to or greater than -1 for this sequence? `CUGUAGCAAUAUUACGUCUU`
RESULT: NOT MET

QUERY: Is the recorded value of self-splicing fitness (ln) equal to or greater than -1 for this sequence? `GAGAAGCAAUAUUACGUACG`
RESULT: MET

QUERY: Is the recorded value of self-splicing fitness (ln) equal to or greater than -1 for this sequence? `GUGCAGCAAUAUUACGAUUC`
RESULT: MET

QUERY: Is the recorded value of self-splicing fitness (ln) equal to or greater than -1 for this sequence? `AUAUAGCAAUAUUACGGACU`
RESULT: MET

New cases:
QUERY: Is the recorded value of self-splicing fitness (ln) equal to or greater than -1 for this sequence? `UGUGAGCAAUAUUACGGAUG`
RESULT: NOT MET

QUERY: Is the recorded value of self-splicing fitness (ln) equal to or greater than -1 for this sequence? `UCCAAGCAAUAUUACGUGGC`
RESULT: NOT MET

QUERY: Is the recorded value of self-splicing fitness (ln) equal to or greater than -1 for this sequence? `ACACAGCAAUAUUACGCUUG`
RESULT: MET

QUERY: Is the recorded value of self-splicing fitness (ln) equal to or greater than -1 for this sequence? `AUCGAGCAAUAUUACGACGA`
RESULT: MET

QUERY: Is the recorded value of self-splicing fitness (ln) equal to or greater than -1 for this sequence? `CGUUAGCAAUAUUACGACUA`
RESULT: MET

QUERY: Is the recorded value of self-splicing fitness (ln) equal to or greater than -1 for this sequence? `GGCGAGCAAUAUUACGAAAA`
RESULT: NOT MET

QUERY: Is the recorded value of self-splicing fitness (ln) equal to or greater than -1 for this sequence? `UACGAGCAAUAUUACGAUAU`
RESULT: NOT MET

QUERY: Is the recorded value of self-splicing fitness (ln) equal to or greater than -1 for this sequence? `UGUUAGCAAUAUUACGGACA`
RESULT: MET

QUERY: Is the recorded value of self-splicing fitness (ln) equal to or greater than -1 for this sequence? `CGAUAGCAAUAUUACGUUUU`
RESULT: NOT MET

----------
ASSAY COMMENT: self-splicing fitness, log relative to wild type (ln ratio); higher = more splicing; Tetrahymena group I intron in knt gene, E. coli kanamycin selection, DiMSum; sequences stand for … in CUCUCU…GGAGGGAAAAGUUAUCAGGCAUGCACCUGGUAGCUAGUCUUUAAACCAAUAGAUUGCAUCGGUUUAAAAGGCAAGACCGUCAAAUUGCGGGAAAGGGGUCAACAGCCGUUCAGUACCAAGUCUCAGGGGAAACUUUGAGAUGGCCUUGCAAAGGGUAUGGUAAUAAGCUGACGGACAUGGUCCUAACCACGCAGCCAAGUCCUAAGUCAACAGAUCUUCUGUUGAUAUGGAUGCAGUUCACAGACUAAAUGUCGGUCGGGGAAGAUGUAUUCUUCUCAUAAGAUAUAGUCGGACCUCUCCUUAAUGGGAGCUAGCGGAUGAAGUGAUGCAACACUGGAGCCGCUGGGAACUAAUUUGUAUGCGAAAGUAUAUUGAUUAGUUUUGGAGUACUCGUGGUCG
TEST CONDITIONS: 30 °C
MEASURED PROPERTY: self-splicing fitness (ln)
Form field (numeric): enter value without unit.

// known answers, use as guide
QUERY: Name the reported self-splicing fitness (ln) value associated with the sequence `CUAAAGCAAUAUUACGCGCG`
RESULT: 0.227

QUERY: Name the reported self-splicing fitness (ln) value associated with the sequence `ACUUAGCAAUAUUACGUGGC`
RESULT: -2.83

QUERY: Name the reported self-splicing fitness (ln) value associated with the sequence `AUCUAGCAAUAUUACGGCUU`
RESULT: -0.0659

QUERY: Name the reported self-splicing fitness (ln) value associated with the sequence `GCGGAGCAAUAUUACGGAUG`
RESULT: -3.28

QUERY: Name the reported self-splicing fitness (ln) value associated with the sequence `GGAUAGCAAUAUUACGUCAC`
RESULT: -2.88

QUERY: Name the reported self-splicing fitness (ln) value associated with the sequence `GGCCAGCAAUAUUACGGACA`
RESULT: -0.666

QUERY: Name the reported self-splicing fitness (ln) value associated with the sequence `ACAUAGCAAUAUUACGGACA`
RESULT: -1.57

QUERY: Name the reported self-splicing fitness (ln) value associated with the sequence `CACAAGCAAUAUUACGGGCA`
RESULT: -3.05

New cases:
QUERY: Name the reported self-splicing fitness (ln) value associated with the sequence `GAACAGCAAUAUUACGGAGU`
RESULT: -2.35

QUERY: Name the reported self-splicing fitness (ln) value associated with the sequence `GCCAAGCAAUAUUACGCAAA`
RESULT: -1.13

QUERY: Name the reported self-splicing fitness (ln) value associated with the sequence `ACUUAGCAAUAUUACGAAUC`
RESULT: -3.59

QUERY: Name the reported self-splicing fitness (ln) value associated with the sequence `AGACAGCAAUAUUACGUAGG`
RESULT: -2.6

QUERY: Name the reported self-splicing fitness (ln) value associated with the sequence `AGGUAGCAAUAUUACGUUAC`
RESULT: -3.62

QUERY: Name the reported self-splicing fitness (ln) value associated with the sequence `ACCAAGCAAUAUUACGAUGG`
RESULT: -1.76

QUERY: Name the reported self-splicing fitness (ln) value associated with the sequence `CUGAAGCAAUAUUACGCUGG`
RESULT: -3.37

QUERY: Name the reported self-splicing fitness (ln) value associated with the sequence `CUAAAGCAAUAUUACGUCAG`
RESULT: -0.715

----------
ASSAY COMMENT: self-splicing fitness, log relative to wild type (ln ratio); higher = more splicing; Tetrahymena group I intron in knt gene, E. coli kanamycin selection, DiMSum; sequences stand for … in CUCUCU…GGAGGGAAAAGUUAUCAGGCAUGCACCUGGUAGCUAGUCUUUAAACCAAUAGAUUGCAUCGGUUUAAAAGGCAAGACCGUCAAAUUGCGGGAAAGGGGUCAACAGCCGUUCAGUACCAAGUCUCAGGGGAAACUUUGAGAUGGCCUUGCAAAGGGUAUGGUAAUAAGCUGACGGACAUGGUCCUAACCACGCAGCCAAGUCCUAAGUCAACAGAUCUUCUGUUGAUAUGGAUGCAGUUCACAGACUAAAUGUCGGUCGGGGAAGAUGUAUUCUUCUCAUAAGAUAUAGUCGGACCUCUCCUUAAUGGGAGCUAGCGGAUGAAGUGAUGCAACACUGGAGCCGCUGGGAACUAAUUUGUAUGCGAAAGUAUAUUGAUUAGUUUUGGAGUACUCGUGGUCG
TEST CONDITIONS: 37 °C
Entries annotated with measured self-splicing fitness (ln)
Form field (numeric): enter value without unit.

QUERY: Name the reported self-splicing fitness (ln) value associated with the sequence `ACUUAGCAAUAUUACGAAUC`
RESULT: -0.386

QUERY: Name the reported self-splicing fitness (ln) value associated with the sequence `UAAGAGCAAUAUUACGGAGG`
RESULT: -1.95

QUERY: Name the reported self-splicing fitness (ln) value associated with the sequence `CAGCAGCAAUAUUACGUCCG`
RESULT: 0.283

QUERY: Name the reported self-splicing fitness (ln) value associated with the sequence `CCUCAGCAAUAUUACGGUCA`
RESULT: -2.04

QUERY: Name the reported self-splicing fitness (ln) value associated with the sequence `CAAGAGCAAUAUUACGAUCG`
RESULT: 0.562

New cases:
QUERY: Name the reported self-splicing fitness (ln) value associated with the sequence `UACGAGCAAUAUUACGGCGU`
RESULT: -1.73

QUERY: Name the reported self-splicing fitness (ln) value associated with the sequence `AUGUAGCAAUAUUACGAUGU`
RESULT: -0.0629

QUERY: Name the reported self-splicing fitness (ln) value associated with the sequence `AACGAGCAAUAUUACGGUAU`
RESULT: -1.85

QUERY: Name the reported self-splicing fitness (ln) value associated with the sequence `GAUGAGCAAUAUUACGUCGG`
RESULT: -2.87

QUERY: Name the reported self-splicing fitness (ln) value associated with the sequence `GUCCAGCAAUAUUACGUAGU`
RESULT: 0.398

QUERY: Name the reported self-splicing fitness (ln) value associated with the sequence `AGUAAGCAAUAUUACGGAUU`
RESULT: -0.84

QUERY: Name the reported self-splicing fitness (ln) value associated with the sequence `GAAUAGCAAUAUUACGUAAC`
RESULT: -1.63

QUERY: Name the reported self-splicing fitness (ln) value associated with the sequence `GUCUAGCAAUAUUACGGUUG`
RESULT: -1.53

QUERY: Name the reported self-splicing fitness (ln) value associated with the sequence `CAUAAGCAAUAUUACGGCGU`
RESULT: -0.836

QUERY: Name the reported self-splicing fitness (ln) value associated with the sequence `CGUUAGCAAUAUUACGUCAU`
RESULT: -2.85

QUERY: Name the reported self-splicing fitness (ln) value associated with the sequence `GGGCAGCAAUAUUACGCCCA`
RESULT: -1.26
